The measurements presented in this section are drawn from the NIST ThermoML archive (doi:10.1021/acs.jced.9b00525).

Exercise: for every item that follows, state its recorded viscosity.
condition.summary: 448.15 K; Liquid; Surface laser light scattering (SLLS)
Give bare numbers, in mPa·s.

* CCCCCCCC | 0.1393
* CCCCCC | 0.0837
* CCCCCCCCCCCCCCCC | 0.4256

Attention now shifts to the item below.
Which viscosity value is on record for "CCCCCCCCCC" ?
0.1978

====

condition.summary: 423.15 K, Surface laser light scattering (SLLS)
Numbers after ± are expanded uncertainties.
Provide the recorded surface tension liquid-gas for the entries that follow.
// return the numeric value with its unit appended

* CCCCCCCCCCCCCCCC [hexadecane] | 16.69 ± 0.25 mN/m
* CCCCCC [hexane] | 5.98 ± 0.06 mN/m

Batch of 2 compounds: report surface tension liquid-gas for each.
1. CCCCCCCCCC [decane]
2. CCCCCCCC [octane]

["12.4 ± 0.32 mN/m", "9.81 ± 0.15 mN/m"]
